# EC50 values compiled below
System: CEM cells HIV-1 protection, formazan growth assay
EXPERIMENTAL PROTOCOL: NCI AIDS Antiviral Assay

CCOC(=O)C(C)(C)Oc1ccc2c(-c3ccc(Cl)cc3)cc(=O)oc2c1    > 13.5 µM
CS(=O)(=O)c1nc(Cl)c(Cl)c(C#N)c1Cl    > 200 µM
Cc1ccc(Nc2nc(C)c(C(=O)CC(=O)C(=O)Nc3c(C)cccc3C(C)(C)C)s2)cc1    > 200 µM
CCC1(c2ccccc2)Sc2ccccc2-n2cccc2C1=O (configuration not stated)    18.2 µM
CC(C)(C)OC(=O)NC(CCCCNC(=O)OCc1ccccc1)C(=O)NCCNc1ccc(NCCNC(=O)C(CCCCNC(=O)OCc2ccccc2)NC(=O)OC(C)(C)C)c2c1C(=O)c1ccccc1C2=O (configuration not stated)    > 151 µM

Find the recorded EC50 belonging to Cc1ccc(C(=O)CC2(O)C(=O)Nc3c(C)cc(Cl)cc32)cc1 (configuration not stated) and report it. > 110 µM

Find the recorded EC50 belonging to CC(C)COC(=O)NC1C(=O)N2C1SC(C)(C)C2C(=O)O (configuration not stated) (tested in a mixture with another compound) and report it. 87.1 µM

Find the recorded EC50 belonging to O=S1CCS(=O)CCS(=O)CC1 (configuration not stated) and report it. > 16.6 µM

Find the recorded EC50 belonging to O=[N+]([O-])c1ccc(OCCC[P+](c2ccccc2)(c2ccccc2)c2ccccc2)c(Cl)c1 and report it. > 200 µM

Find the recorded EC50 belonging to O=S1c2ccccc2SCSc2ccccc21 and report it. > 200 µM

Find the recorded EC50 belonging to CC(Cl)CN1c2ccccc2Sc2ccc(Cl)cc21 (configuration not stated) and report it. > 200 µM

Find the recorded EC50 belonging to Cn1[nH]c2[nH]c(=S)sc(=S)c2c1=O and report it. > 200 µM

Find the recorded EC50 belonging to COC1/C=C/OC2(C)Oc3c(C)c(O)c4c(O)c(c(/C=N/NC5CCCCCCCCCCCCCC5)c(O)c4c3C2=O)NC(=O)/C(C)=C\C=C\C(C)C(O)C(C)C(O)C(C)C(OC(C)=O)C1C (configuration not stated) and report it. > 200 µM

Find the recorded EC50 belonging to O=S1(=O)Cc2ccc3c4c2-c2c(ccc5ccc(c-4c25)CS(=O)(=O)C3)C1 and report it. > 200 µM

Find the recorded EC50 belonging to COC(=O)C(=O)C(C(=O)C=C(C)C)C(=O)C(=O)Nc1cc(C(F)(F)F)ccc1Cl (configuration not stated) and report it. > 83.2 µM

Find the recorded EC50 belonging to O=C(c1ccccc1)C1C(C(=O)c2ccccc2)N1Cc1ccccc1 (configuration not stated) and report it. > 200 µM

Find the recorded EC50 belonging to C=CN1C(=O)OC(c2ccccc2)C1c1ccccc1 (configuration not stated) and report it. > 93.3 µM

Find the recorded EC50 belonging to COC(=O)N/N=C(\C)C(CN1CCCCC1)C(C1=C(O)c2ccccc2OC1)c1ccccc1 (configuration not stated) and report it. > 72.4 µM

Find the recorded EC50 belonging to c1ccc2[nH]c(SSc3nc4ccccc4[nH]3)nc2c1 and report it. > 107 µM

Find the recorded EC50 belonging to CCOC(=O)C1C(c2ccc(OC)cc2)c2c([nH]n(-c3ccccc3)c2=O)CC1(O)OCC (configuration not stated) and report it. > 200 µM

Find the recorded EC50 belonging to Cc1cc2c(-c3ccccc3)c3cc(C)c(N)cc3nc2cc1N and report it. > 200 µM

Find the recorded EC50 belonging to NCC(O)c1cc(I)c(Oc2ccc(O)cc2)c(I)c1 (configuration not stated) and report it. > 200 µM

Find the recorded EC50 belonging to O=C(CCCN1CCC(C(O)c2ccc(F)cc2)CC1)c1ccc(F)cc1 (configuration not stated) and report it. > 95.5 µM

Find the recorded EC50 belonging to O=C(c1ccccc1)C1C(c2ccccc2)N1S(=O)(=O)c1ccccc1 (configuration not stated) and report it. > 20 µM

Find the recorded EC50 belonging to COc1c2c(c(OC)c3c(=O)cc(C/C(=N/NC(=O)C[n+]4ccccc4)C(=O)Nc4cc(C)ccc4C)oc13)OCO2 and report it. > 30.9 µM
